These entries and their values trace back to paper PMC4593031.

- experimentalProtocol: UV/Vis absorption of photoisomers
- Format: physicochemical
- experimentalParameters: cis isomer
The entries below come with measured λmax n-π* (cis) values attached.
Output spec: scalar in nm, unitless text.

input: Looking for the measured λmax n-π* (cis) of "O=[N+]([O-])/N=C1/N(Cc2ccc(/N=N/c3ccccc3)cc2)CCN1Cc1ccc(Cl)nc1" , can you help?
output: 433

input: Now consider "O=[N+]([O-])N=C1N(Cc2ccc(N=Nc3ccc(CN4CCN(Cc5ccc(Cl)nc5)C4=N[N+](=O)[O-])cc3)cc2)CCN1Cc1ccc(Cl)nc1" and answer again.
output: 434

input: Now consider "O=[N+]([O-])/N=C1\N(Cc2ccc(Cl)nc2)CCN1Cc1cccc(/N=N/c2ccccc2)c1" and answer again.
output: 431

input: Now consider "O=[N+]([O-])/N=C1\N(Cc2ccc(Cl)nc2)CCN1Cc1cccc(/N=N/c2cccc(CN3CCN(Cc4ccc(Cl)nc4)/C3=N\[N+](=O)[O-])c2)c1" and answer again.
output: 429

* * *

- targetSystem: house fly brain nAChR
- experimentalProtocol: nAChR binding in vitro, competitive inhibition of [3H]NMI binding
- experimentalParameters: irradiated; 1 nM [3H]NMI, house fly head membranes; read-out: Musca domestica in vitro IC50, [3H]NMI
property: IC50 (nM)
Output spec: scalar in nM, unitless text.

Reference set (4 entries):
[[record]]
compoundstructure = "O=[N+]([O-])/N=C1\\N(Cc2ccc(Cl)nc2)CCN1Cc1cccc(/N=N/c2cccc(CN3CCN(Cc4ccc(Cl)nc4)/C3=N\\[N+](=O)[O-])c2)c1"
targetsystem = "house fly brain nAChR"
reportedresult = 1340

[[record]]
compoundstructure = "O=[N+]([O-])/N=C1\\N(Cc2ccc(Cl)nc2)CCN1Cc1cccc(/N=N/c2ccccc2)c1"
targetsystem = "house fly brain nAChR"
reportedresult = 1140

[[record]]
compoundstructure = "O=[N+]([O-])NC1=NCCN1Cc1ccc(Cl)nc1"
targetsystem = "house fly brain nAChR"
reportedresult = 28.8

[[record]]
compoundstructure = "O=[N+]([O-])/N=C1/N(Cc2ccc(/N=N/c3ccccc3)cc2)CCN1Cc1ccc(Cl)nc1"
targetsystem = "house fly brain nAChR"
reportedresult = 1220


Pending compound:
input: Looking for the measured IC50 of "O=[N+]([O-])N=C1N(Cc2ccc(N=Nc3ccc(CN4CCN(Cc5ccc(Cl)nc5)C4=N[N+](=O)[O-])cc3)cc2)CCN1Cc1ccc(Cl)nc1" , can you help?
output: 112
